Below, each entry is listed alongside its reported growth inhibition.
measurement protocol: NCI Yeast Anticancer Drug Screen. Data for the rad50 strain (AID 155);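 further: 0% = growth of vehicle-only cultures of the same strain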
run parameters: S. cerevisiae rad50 strain growth inhibition, active compounds read high; at 50.0 µM unless noted
Compounds without any hit were thinned out: in the full panel of roughly 79,000, 15% have a hit.
test readout: growth inhibition (%)

[[record]]
compound = "NC(=S)Nc1ccc(Br)cc1"
test_readout = "growth inhibition"
experimental_value = -0.85

[[record]]
compound = "Brc1ccccc1C#Cc1ccccc1Br"
test_readout = "growth inhibition"
experimental_value = 0.7

[[record]]
compound = "CCC(=O)COc1ccc(NC(NC(=O)C(C(F)(F)F)C(F)(F)F)(C(F)(F)F)C(F)(F)F)cc1"
test_readout = "growth inhibition"
experimental_value = 16.2

[[record]]
compound = "CC1=C(C#N)C(=C(C#N)C#N)OC1(C)Cc1ccccc1 (stereo unspecified)"
test_readout = "growth inhibition"
experimental_value = 8.25

[[record]]
compound = "CCCCNC(=O)c1cc(=O)[nH]c(=O)[nH]1"
test_readout = "growth inhibition"
experimental_value = 1.5

[[record]]
compound = "Nc1ccc(N)c2c(O)c3ccccc3c(O)c12"
test_readout = "growth inhibition"
experimental_value = 5.2

[[record]]
compound = "S=C(c1ccccc1)c1cccc2ccccc12"
test_readout = "growth inhibition"
experimental_value = 57

[[record]]
compound = "O=C(O)c1ccc(C(=O)NCCCN(CCCCN(CCCNC(=O)c2ccc(C(=O)O)c(O)c2O)C(=O)c2ccc(C(=O)O)c(O)c2O)C(=O)c2ccc(C(=O)O)c(O)c2O)c(O)c1O"
test_readout = "growth inhibition"
experimental_value = 11.2

[[record]]
compound = "CCC(=O)c1cccc2cccc(C(c3ccccc3)c3ccccc3)c12"
test_readout = "growth inhibition"
experimental_value = 1.85

[[record]]
compound = "CCCCCCCCCCCCCC(=O)OCCC(C)C"
test_readout = "growth inhibition"
experimental_value = -5.85

[[record]]
compound = "Cc1cc([N+](=O)[O-])ccc1NC(=O)n1nnc2cc(Cl)ccc21"
test_readout = "growth inhibition"
experimental_value = -5.55


----------
measurement protocol: NCI Yeast Anticancer Drug Screen. Data for the sgs1 mgt1 strain (AID 161);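 further: 0% = growth of cultures given vehicle only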
run parameters: S. cerevisiae sgs1 mgt1 strain, active compounds read high; at 50.0 µM unless noted
About 79,000 compounds went through this panel and 15% of them were active in at least one assay; those are over-represented in the sample as a whole.
test readout: growth inhibition (%)

[[record]]
compound = "Cc1cc(=O)n2nc(CSc3nnc(N)s3)sc2n1"
test_readout = "growth inhibition"
experimental_value = 7.35

[[record]]
compound = "Cc1ccc(C(=O)O)cc1"
test_readout = "growth inhibition"
experimental_value = 0.65

[[record]]
compound = "Cn1c(NN)nc2ccccc2c1=O"
test_readout = "growth inhibition"
experimental_value = -26.9

[[record]]
compound = "C=C1C(=O)OC2CC1C(OC(C)=O)CC1(C)OC1CCC1(C)OC1CCC2(C)O (centres undefined)"
test_readout = "growth inhibition"
experimental_value = 1.05

[[record]]
compound = "CCC1(C=O)C(=O)NC(=O)N1C (centres undefined)"
test_readout = "growth inhibition"
experimental_value = 2

[[record]]
compound = "O=C1c2ccccc2S(=O)(=O)c2c1cccc2[N+](=O)[O-]"
test_readout = "growth inhibition"
experimental_value = 3.6

[[record]]
compound = "NC1CCC[C@@H](O)[C@H]1O (some centres undefined)"
test_readout = "growth inhibition"
experimental_value = 8.7

[[record]]
compound = "Cc1ccc(OCC(=O)O)c(Cl)c1"
test_readout = "growth inhibition"
experimental_value = 0.65

[[record]]
compound = "CC(O)CNC1=CC(=O)C(=O)c2ccccc21 (centres undefined)"
test_readout = "growth inhibition"
experimental_value = 4.8

[[record]]
compound = "CCCCn1cnc2c(SC)ncnc21"
test_readout = "growth inhibition"
experimental_value = -18.4

[[record]]
compound = "NC(CCO)P(=O)(O)O (centres undefined)"
test_readout = "growth inhibition"
experimental_value = -20.2

[[record]]
compound = "N#Cc1c(N2CCCC2)nsc1Nc1ccc(F)cc1"
test_readout = "growth inhibition"
experimental_value = 0.8

[[record]]
compound = "O=S(=O)(c1ccccn1)c1nc2ccccc2s1"
test_readout = "growth inhibition"
experimental_value = -0.45

[[record]]
compound = "CC(C)(C)OC(=O)NCCCCC(N)C(N)=O (centres undefined)"
test_readout = "growth inhibition"
experimental_value = -31.9

